Tested on: P388
Assay: Antiproliferative activity against mouse P388 cells
Format: functional, cell-based
pIC50: −log10 of the molar value.
ASSAY ENDPOINT: pIC50

CC(C)=CC[C@@H](O)[C@@H](C)[C@H]1CC[C@@]2(C)C3=C(CC[C@]12C)[C@@]1(C)CC[C@H](O)C(C)(C)[C@@H]1CC3 [INOTODIOL]	4.86

====

Test system: Bel-7402
Experiment: Cytotoxicity against human Bel7402 cells
Type: functional, cell-based
ASSAY ENDPOINT: IC50 (nM)

COc1cc([C@@H]2c3cc4c(cc3[C@@H](O[C@@H]3O[C@@H]5CO[C@@H](C)O[C@H]5[C@H](O)[C@H]3O)[C@H]3COC(=O)[C@H]23)OCO4)cc(OC)c1O [ETOPOSIDE]	80

====

Biological target: DNA topoisomerase 1 (Homo sapiens, UniProt P11387)
Sequence (P11387 whole entry): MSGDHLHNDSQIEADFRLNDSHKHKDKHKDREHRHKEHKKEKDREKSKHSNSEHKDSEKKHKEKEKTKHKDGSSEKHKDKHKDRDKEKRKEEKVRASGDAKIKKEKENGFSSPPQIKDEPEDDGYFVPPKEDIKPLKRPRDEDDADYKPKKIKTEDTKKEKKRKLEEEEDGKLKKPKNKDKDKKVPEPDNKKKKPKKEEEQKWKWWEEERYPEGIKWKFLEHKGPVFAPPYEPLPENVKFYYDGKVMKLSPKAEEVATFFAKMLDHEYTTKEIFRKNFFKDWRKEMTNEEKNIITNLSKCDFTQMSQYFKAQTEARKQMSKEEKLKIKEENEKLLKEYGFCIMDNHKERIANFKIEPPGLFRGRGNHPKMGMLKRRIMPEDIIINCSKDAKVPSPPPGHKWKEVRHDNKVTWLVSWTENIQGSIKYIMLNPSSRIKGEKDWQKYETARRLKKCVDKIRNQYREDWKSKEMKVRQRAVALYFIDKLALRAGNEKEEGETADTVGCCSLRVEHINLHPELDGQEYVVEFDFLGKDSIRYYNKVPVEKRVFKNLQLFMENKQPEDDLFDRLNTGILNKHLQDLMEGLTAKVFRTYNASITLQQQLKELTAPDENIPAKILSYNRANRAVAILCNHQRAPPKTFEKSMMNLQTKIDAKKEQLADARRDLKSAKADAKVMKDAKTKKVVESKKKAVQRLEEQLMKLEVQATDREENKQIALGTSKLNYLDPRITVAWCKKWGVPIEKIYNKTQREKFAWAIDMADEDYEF
Assay: Inhibition of topoisomerase 1 in human HuH7 cells
Assay type: cell-based, Huh-7
ASSAY ENDPOINT: IC50 (µM)

CC(=O)O[C@H]1C[C@H]([C@H](C)CC/C=C(\C)C(=O)O)[C@@]2(C)CC=C3C(=CC[C@H]4C(C)(C)[C@@H](O)CC[C@]34C)[C@]12C	55

====

Tested on: HepG2
Test: Cytotoxicity against human HepG2 cells
Assay type: functional, cell-based
ASSAY ENDPOINT: IC50 (µM)

C[C@H](CCC=C(CO)CO)[C@H]1CC[C@@]2(C)C3=CC[C@H]4C(C)(C)C(=O)CC[C@]4(C)C3=CC[C@]12C	17

====

System: DU-145
Experiment: Cytotoxicity against human DU145 cells
Type: functional, cell-based
pIC50: −log10 of the molar value.
ASSAY ENDPOINT: pIC50

C=C(CC[C@@H](C(=O)O)[C@H]1[C@H](O)C[C@@]2(C)C3=CC[C@H]4C(C)(CO)C(=O)CC[C@]4(C)C3=CC[C@]12C)C(C)C (stereo partly specified)	4.30

====

This section presents compounds with their documented EC50 values.
Test: Cytotoxicity against mouse Meth-A cells
Format: functional, cell-based
Conditions: read-out: ED50 (the source's name)
ASSAY ENDPOINT: EC50

C/C(=C\[C@@H](O)C[C@@H](C)[C@H]1CC(=O)[C@@]2(C)C3=C(C(=O)[C@@H](O)[C@]12C)[C@@]1(C)CC[C@H](O)C(C)(C)[C@@H]1CC3=O)C(=O)O	2.3 µg/mL
C[C@H](CC[C@H](O)C(C)(C)O)[C@H]1CC[C@@]2(C)C3=C(CC[C@]12C)[C@@]1(C)CCC(=O)C(C)(C)[C@@H]1CC3=O	2.3 µg/mL
C[C@H](CC[C@@H](O)C(C)(C)O)[C@H]1CC[C@@]2(C)C3=CC[C@H]4C(C)(C)C(=O)CC[C@]4(C)C3=CC[C@]12C	3.4 µg/mL
C[C@H](CC[C@H](O)[C@](C)(O)CO)[C@H]1CC[C@@]2(C)C3=CC[C@H]4C(C)(C)C(=O)CC[C@]4(C)C3=CC[C@]12C	2.3 µg/mL

====

Biological target: DNA topoisomerase 1 (Homo sapiens)
Sequence (P11387 whole entry): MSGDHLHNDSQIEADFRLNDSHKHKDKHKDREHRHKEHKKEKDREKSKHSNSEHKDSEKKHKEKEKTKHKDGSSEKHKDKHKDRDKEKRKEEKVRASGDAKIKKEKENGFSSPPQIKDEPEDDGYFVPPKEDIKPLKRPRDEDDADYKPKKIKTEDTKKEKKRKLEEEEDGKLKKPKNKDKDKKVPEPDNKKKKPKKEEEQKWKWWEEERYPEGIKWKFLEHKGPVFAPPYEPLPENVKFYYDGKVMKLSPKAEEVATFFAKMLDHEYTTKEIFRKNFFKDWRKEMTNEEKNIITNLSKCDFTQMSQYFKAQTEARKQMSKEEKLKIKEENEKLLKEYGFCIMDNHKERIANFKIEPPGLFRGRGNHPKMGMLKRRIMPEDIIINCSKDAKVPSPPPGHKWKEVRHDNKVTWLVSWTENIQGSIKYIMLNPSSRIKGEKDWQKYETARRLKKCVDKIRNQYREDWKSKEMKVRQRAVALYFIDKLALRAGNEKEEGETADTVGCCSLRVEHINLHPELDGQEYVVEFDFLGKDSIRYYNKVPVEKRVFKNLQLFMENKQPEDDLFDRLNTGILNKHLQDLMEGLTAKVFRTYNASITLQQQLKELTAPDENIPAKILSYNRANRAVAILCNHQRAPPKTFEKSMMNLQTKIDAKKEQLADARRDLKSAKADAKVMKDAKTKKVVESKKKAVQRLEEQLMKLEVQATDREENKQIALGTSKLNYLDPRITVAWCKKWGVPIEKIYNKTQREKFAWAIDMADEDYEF
Experiment: Inhibition of topoisomerase 1
ASSAY ENDPOINT: IC50

C[C@H](CCC=C(CO)CO)[C@H]1CC[C@@]2(C)C3=CC[C@H]4C(C)(C)C(=O)CC[C@]4(C)C3=CC[C@]12C [GANODERIOL F]	106 µM

Data provenance: ChEMBL document CHEMBL2203027
